Overview of recorded Weight of mice, Day 11 for various compounds
# experimental_parameters: Day 11; G3-G9 groups; single IP dose; Mean±SEM
Numeric only. Scale: g

Consider the worked cases shown below.
- O=C(Nc1nc(=O)n([C@@H]2O[C@H](CO)[C@@H](O)C2(F)F)cc1Br)OCc1ccccc1: 21.97
- CC(C)(C)OC(=O)Nc1ccn([C@@H]2O[C@H](COC(=O)Cn3cnc([N+](=O)[O-])c3)[C@@H](O)C2(F)F)c(=O)n1: 21.55
- O=C(Nc1ccn([C@@H]2O[C@H](CO)[C@@H](O)C2(F)F)c(=O)n1)OCc1ccc([N+](=O)[O-])cc1: 22.07

For this compound ( "CC(C)(C)OC(=O)Nc1ccn([C@@H]2O[C@H](CO)[C@@H](O)C2(F)F)c(=O)n1" ), measured Weight of mice, Day 11 is 21.43

For this compound ( "O=C(Nc1ccn([C@@H]2O[C@H](CO)[C@@H](O)C2(F)F)c(=O)n1)OCc1ccccc1" ), measured Weight of mice, Day 11 is 21.08

For this compound ( "CCCCOC(=O)Nc1nc(=O)n([C@@H]2O[C@H](CO)[C@@H](O)C2(F)F)cc1Br" ), measured Weight of mice, Day 11 is 20.50

====

Overview of recorded Day 13 (RTV) for various compounds
# Tested on: HCT-116 colon cancer xenografts
# assay_text: Tumor growth inhibition of HCT-116 colon cancer xenografts in tumor-bearing nude mice (tumor volume, TGI %, RTV, T/C %)
# Type: in vivo, Balb/c Nude mice
# experimental_parameters: Day 13; G3-G9 groups; single IP dose; Mean±SEM
Answer with a number only.

Consider the worked cases shown below.
• O=C(Nc1ccn([C@@H]2O[C@H](CO)[C@@H](O)C2(F)F)c(=O)n1)OCc1ccc([N+](=O)[O-])cc1 = 1.04
• O=C(Nc1ccn([C@@H]2O[C@H](CO)[C@@H](O)C2(F)F)c(=O)n1)OCc1ccccc1 = 1.51
• CCCCOC(=O)Nc1nc(=O)n([C@@H]2O[C@H](CO)[C@@H](O)C2(F)F)cc1Br = 11.39
• CC(C)(C)OC(=O)Nc1ccn([C@@H]2O[C@H](CO)[C@@H](O)C2(F)F)c(=O)n1 = 8.92
• O=C(Nc1nc(=O)n([C@@H]2O[C@H](CO)[C@@H](O)C2(F)F)cc1Br)OCc1ccccc1 = 1.66

With those in mind, consider the next compound.
For this compound ( "CC(C)(C)OC(=O)Nc1ccn([C@@H]2O[C@H](COC(=O)Cn3cnc([N+](=O)[O-])c3)[C@@H](O)C2(F)F)c(=O)n1" ), measured Day 13 (RTV) is 8.16

====

# experimental_parameters: Day 25; G10-G16 groups; single IP 400 mg/kg; Mean±SEM
metric_name: Weight change rate, Day 25 (%)
Numeric only. Scale: %

* CCCCOC(=O)Nc1nc(=O)n(C2OC(COC(=O)COc3nc(Cl)c(Cl)cc3Cl)C(O)C2(F)F)cc1Br (stereo not drawn) [Compound G16] | 7.62
* CCCCOC(=O)Nc1nc(=O)n(C2OC(COC(=O)COc3nc(Cl)c(Cl)cc3Cl)C(O)C2(F)F)cc1I (stereo not drawn) [Compound G11] | −0.06
* O=C(COc1nc(Cl)c(Cl)cc1Cl)OC[C@H]1O[C@@H](n2cc(Br)c(NC(=O)OCc3ccccc3)nc2=O)C(F)(F)C1O (stereo partly drawn) [Compound G10] | −1.80
* CCCCOC(=O)Nc1nc(=O)n(C2OC(COC(=O)COc3nc(Cl)c(Cl)cc3Cl)C(O)C2(F)F)cc1-c1cn(Cc2ccccc2)nn1 (stereo not drawn) [Compound G15] | 9.26
* O=C(COc1nc(Cl)c(Cl)cc1Cl)OCC1OC(n2cc(-c3cn(Cc4ccccc4)nn3)c(NC(=O)OCc3ccc([N+](=O)[O-])cc3)nc2=O)C(F)(F)C1O (stereo not drawn) [Compound G13] | 9.03

With those in mind, consider the next compound.
For this compound ( CCCCOC(=O)Nc1nc(=O)n([C@@H]2O[C@H](COC(=O)Cn3cnc([N+](=O)[O-])c3)C(O)C2(F)F)cc1I (stereo partly drawn) [Compound G12] ), measured Weight change rate, Day 25 is 6.69

====

# Test system: HCT-116 colon cancer xenografts
# assay_text: Tumor growth inhibition of HCT-116 colon cancer xenografts in tumor-bearing nude mice (tumor volume, TGI %, RTV, T/C %)
# Assay type: in vivo, Balb/c Nude mice
# experimental_parameters: Day 18; G3-G9 groups; single IP dose
Overview of recorded Day 18 (TGI %) for various molecules
Numeric only. Scale: %

Consider the worked cases shown below.
* O=C(Nc1ccn([C@@H]2O[C@H](CO)[C@@H](O)C2(F)F)c(=O)n1)OCc1ccc([N+](=O)[O-])cc1 | 87.26
* O=C(Nc1ccn([C@@H]2O[C@H](CO)[C@@H](O)C2(F)F)c(=O)n1)OCc1ccccc1 | 85.93
* CCCCOC(=O)Nc1nc(=O)n([C@@H]2O[C@H](CO)[C@@H](O)C2(F)F)cc1Br | 22.38
* CC(C)(C)OC(=O)Nc1ccn([C@@H]2O[C@H](COC(=O)Cn3cnc([N+](=O)[O-])c3)[C@@H](O)C2(F)F)c(=O)n1 | 51.00
* O=C(Nc1nc(=O)n([C@@H]2O[C@H](CO)[C@@H](O)C2(F)F)cc1Br)OCc1ccccc1 | 65.62

With those in mind, consider the next molecule.
For this molecule ( "CC(C)(C)OC(=O)Nc1ccn([C@@H]2O[C@H](CO)[C@@H](O)C2(F)F)c(=O)n1" ), measured Day 18 (TGI %) is 45.71

====

# experimental_parameters: Day 4; G3-G9 groups; single IP dose; Mean±SEM
Overview of recorded Weight change rate, Day 4 for various compounds
Numeric only. Scale: %

Consider the worked cases shown below.
* O=C(Nc1nc(=O)n([C@@H]2O[C@H](CO)[C@@H](O)C2(F)F)cc1Br)OCc1ccccc1 | −12.28
* CC(C)(C)OC(=O)Nc1ccn([C@@H]2O[C@H](COC(=O)Cn3cnc([N+](=O)[O-])c3)[C@@H](O)C2(F)F)c(=O)n1 | −0.08
* CCCCOC(=O)Nc1nc(=O)n([C@@H]2O[C@H](CO)[C@@H](O)C2(F)F)cc1Br | 0.00

For this compound ( "CC(C)(C)OC(=O)Nc1ccn([C@@H]2O[C@H](CO)[C@@H](O)C2(F)F)c(=O)n1" ), measured Weight change rate, Day 4 is 3.13

For this compound ( "O=C(Nc1ccn([C@@H]2O[C@H](CO)[C@@H](O)C2(F)F)c(=O)n1)OCc1ccc([N+](=O)[O-])cc1" ), measured Weight change rate, Day 4 is −8.40

For this compound ( "O=C(Nc1ccn([C@@H]2O[C@H](CO)[C@@H](O)C2(F)F)c(=O)n1)OCc1ccccc1" ), measured Weight change rate, Day 4 is −10.91

====

Overview of recorded maximum value of TGI % for various molecules
# Test system: HCT-116 colon cancer xenografts
# assay_text: Tumor growth inhibition of HCT-116 colon cancer xenografts in tumor-bearing nude mice (tumor volume, TGI %, RTV, T/C %)
# Format: in vivo, Balb/c Nude mice
# experimental_parameters: day of maximum: G3 Day 8, G4 Day 11, G5 Day 11, G9 Day 4, G7 Day 8; single IP
Numeric only. Scale: %

• O=C(Nc1nc(=O)n([C@@H]2O[C@H](CO)[C@@H](O)C2(F)F)cc1Br)OCc1ccccc1 = 82.62

For this molecule ( "CC(C)(C)OC(=O)Nc1ccn([C@@H]2O[C@H](CO)[C@@H](O)C2(F)F)c(=O)n1" ), measured maximum value of TGI % is 58.10

For this molecule ( "CC(C)(C)OC(=O)Nc1ccn([C@@H]2O[C@H](COC(=O)Cn3cnc([N+](=O)[O-])c3)[C@@H](O)C2(F)F)c(=O)n1" ), measured maximum value of TGI % is 80.77

For this molecule ( "O=C(Nc1ccn([C@@H]2O[C@H](CO)[C@@H](O)C2(F)F)c(=O)n1)OCc1ccc([N+](=O)[O-])cc1" ), measured maximum value of TGI % is 94.46

For this molecule ( "O=C(Nc1ccn([C@@H]2O[C@H](CO)[C@@H](O)C2(F)F)c(=O)n1)OCc1ccccc1" ), measured maximum value of TGI % is 92.58

====

# experimental_parameters: Day 22; single IP dose (mg/kg)
Overview of recorded Day 22 Mortality for various molecules
Numeric only. Scale: %

* O=C(COc1nc(Cl)c(Cl)cc1Cl)OCC1OC(n2cc(-c3cn(Cc4ccccc4)nn3)c(NC(=O)OCc3ccc([N+](=O)[O-])cc3)nc2=O)C(F)(F)C1O (stereo not shown) | 0
* CCCCOC(=O)Nc1nc(=O)n(C2OC(COC(=O)COc3nc(Cl)c(Cl)cc3Cl)C(O)C2(F)F)cc1Br (stereo not shown) | 0
* CCCCOC(=O)Nc1nc(=O)n(C2OC(COC(=O)COc3nc(Cl)c(Cl)cc3Cl)C(O)C2(F)F)cc1-c1cn(Cc2ccccc2)nn1 (stereo not shown) | 67

For this molecule ( CCCCOC(=O)Nc1nc(=O)n(C2OC(COC(=O)COc3nc(Cl)c(Cl)cc3Cl)C(O)C2(F)F)cc1I (stereo not shown) ), measured Day 22 Mortality is 0

For this molecule ( O=C(COc1nc(Cl)c(Cl)cc1Cl)OC[C@H]1O[C@@H](n2cc(Br)c(NC(=O)OCc3ccccc3)nc2=O)C(F)(F)C1O (stereo partly shown) ), measured Day 22 Mortality is 0

For this molecule ( "CC(C)(C)OC(=O)Nc1ccn([C@@H]2O[C@H](COC(=O)Cn3cnc([N+](=O)[O-])c3)[C@@H](O)C2(F)F)c(=O)n1" ), measured Day 22 Mortality is 0

For this molecule ( "CCCCOC(=O)Nc1nc(=O)n([C@@H]2O[C@H](CO)[C@@H](O)C2(F)F)cc1Br" ), measured Day 22 Mortality is 83

For this molecule ( "O=C(Nc1ccn([C@@H]2O[C@H](CO)[C@@H](O)C2(F)F)c(=O)n1)OCc1ccc([N+](=O)[O-])cc1" ), measured Day 22 Mortality is 0

Data origin: patent US10174067B2
